# maps each entry to its IC50
Test system: A-673 cells
Experiment: Cell viability, crystal violet staining
Type: cell-based
Conditions: Homo sapiens, A673, cell viability, read-out: A-673 IC50 (nM) Cell viability
Description: To measure cell viability, cells were plated in 96-well plastic tissue culture plates at a density of 5×10^3 cells/well. Twenty-four hours after plating, cells were treated with various SMSMs. […] Intensity of crystal violet staining, assessed at 570 nm and quantified using a Vmax Kinetic Microplate Reader and Softmax software (Molecular Devices Corp., Menlo Park, Calif.), were directly proportional to cell number. […] SMSMs that are effective were determined for various cells lines. […]

Some entries whose results are on file:
| Compound | IC50 |
| --- | --- |
| C[C@]12CC[C@](C)(C[C@@H](Oc3ccc(-c4ccc(-c5cn[nH]c5)cc4O)nn3)C1)N2 [compound 152] | 101 to 250 nM |
| CN(c1ccc(-c2ccc(-c3ccnc(C#N)c3)cc2O)nn1)[C@H]1C[C@]2(C)CC[C@](C)(C1)N2 [compound 199] | 10 to 100 nM |
| COc1cc(-c2ccc(-c3ccc(N(C)[C@H]4C[C@]5(C)CC[C@](C)(C4)N5)nn3)c(O)c2)cnn1 [compound 191] | < 10 nM |
| CC1(C)CC(N(c2ccc(-c3ccc(-c4cn[nH]c4)cc3O)nn2)C2CC2)CC(C)(C)N1 [compound 129] | 251 to 500 nM |
| CN(c1ccc(-c2ccc(-c3cnn(CF)c3)cc2O)nn1)[C@H]1C[C@]2(C)CC[C@](C)(C1)N2 [compound 174] | < 10 nM |

-- ask Please tell me: IC50 of [2H]C([2H])([2H])Oc1cc(-c2ccc(-c3ccc(N(C)[C@H]4C[C@]5(C)CC[C@](C)(C4)N5)nn3)c(O)c2)cc(F)n1 [compound 207] , system A-673 cells?
-- reply 10 to 100 nM

-- ask Please tell me: IC50 of CN(c1ccc(-c2ccc(-c3cn[nH]c3)cc2O)nn1)[C@H]1C[C@]2(C)CC[C@](C)(C1)N2 [compound 151] , system A-673 cells?
-- reply < 10 nM
